EXPERIMENT: chemical genetic growth profiling, strain panel (AID 1159580);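 also: tested at 20 µM; growth read once vehicle control cultures reached saturation at 30 °C; lower values mean less growth of the strain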
COND: S. cerevisiae deletion strains, growth OD, locus YER016W, strain bim1
Hit rate of the full screen: of about 5,500 compounds, about 2,000 (36%) were called active. Inconclusive results (about 18%) are left out. Rule as the data show it: active = normalized growth mostly below about 0.91 (no sharp cut-off); inconclusive = no clear call, values can overlap the other calls; inactive = mostly above about 0.92. This is one part of the list.
Classes used: active, inactive

CNCCCC12CCC(c3ccccc31)c1ccccc12
inactive
COC1CC2CCC(C)C(O)(O2)C(=O)C(=O)N2CCCCC2C(=O)OC(C(C)CC2CCC(O)C(OC)C2)CC(=O)C(C)/C=C(\C)C(O)C(OC)C(=O)C(C)CC(C)/C=C/C=C/C=C/1C (stereo unspecified)
active
Nc1ccc(C(=O)O)cc1
inactive
C/C1=C/CC(C)(C)/C=C/C/C(C)=C/CC1
inactive
CCOC(=O)NNc1nncc2ccccc12
inactive
NC(=O)c1cccnc1
inactive
CC1(C)CC2C1CC[C@]1(C)CCC3C(C(=O)O)CC(=O)O[C@@]32C1 (stereo partly specified)
inactive
CCC(C)[C@H]1O[C@]2(C=C[C@@H]1C)C[C@@H]1C[C@@H](C/C=C(\C)[C@@H](OC3C[C@H](OC)C(O[C@H]4C[C@H](OC)[C@@H](O)[C@H](C)O4)[C@H](C)O3)[C@@H](C)/C=C/C=C3\CO[C@@H]4[C@H](O)C(C)=C[C@@H](C(=O)O1)[C@]34O)O2 (stereo partly specified)
active
O=P1(NCCCl)OCCCN1CCCl (stereo unspecified)
inactive
CC12CCC(=O)C=C1CCC1C2[C@@H](O)CC2(C)C1CC[C@]2(O)C(=O)COP(=O)(O)O (stereo partly specified)
inactive
CC(=O)O[C@@H]1CC2C(C)(C)C(=O)C=C[C@]2(C)C2CC[C@]3(C)C(=CC(=O)O[C@H]3c3ccoc3)[C@@]21C (stereo partly specified)
inactive

This collection of values is drawn from PubChem BioAssay AID1159580.
